Each entry below carries its recorded percentage binding (FACS heat-map).
- test-system: T1, human IGSF11 (VSIG3) on cells (human, UniProt Q5DX21 23-431)
- T1 sequence: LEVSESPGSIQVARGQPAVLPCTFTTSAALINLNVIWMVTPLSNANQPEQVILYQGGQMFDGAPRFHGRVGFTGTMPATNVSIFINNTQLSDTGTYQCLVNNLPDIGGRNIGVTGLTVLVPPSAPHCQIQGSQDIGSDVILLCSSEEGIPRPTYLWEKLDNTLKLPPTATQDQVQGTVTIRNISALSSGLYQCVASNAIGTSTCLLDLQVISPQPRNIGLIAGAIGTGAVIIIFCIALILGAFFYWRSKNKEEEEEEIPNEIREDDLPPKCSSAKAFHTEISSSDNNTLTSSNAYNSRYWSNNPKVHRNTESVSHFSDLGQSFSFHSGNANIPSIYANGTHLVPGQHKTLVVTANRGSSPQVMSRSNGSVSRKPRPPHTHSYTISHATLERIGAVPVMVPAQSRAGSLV
- protocol-text: FACS, IgG1-format antibodies; DMS 273 cells (D) treated with IGSF11 siRNA (KD)

- binder: "A-011 (IgG1 format) (antibody, V domains shown, human IgG1 format) VH: QVQLVESGGGVVQPGRSLRLSCAASGFTFSSYAMHWVRQAPGKGLEWVAVISYDGSNKYYADSVKGRFTISRDNSKNTLYLQMNSLRAEDTAVYYCAEGGALNYYGMDVWGQGTTVTVSS VL: SSELTQDPGVSVALGQTVRITCQGDSLRHFYATWYQQKPGQAPILVIYGKNNRPSGIPDRFSGSSSEDTASLTITGAQAEDEADYYCQSRDPRNNHLIFGGGTKLIVL"
  quantity-unit: "%"
  percentage binding (FACS heat-map): 3.4
- binder: "A-006 (IgG1 format) (antibody, V domains shown, human IgG1 format; also called A-006-like ABP) VH: EVQLVESGGGLIQPGGSLRLSCAASGFTVSSNYMSWVRQAPGKGLEWVSVIYSGGSTYYADSVKGRFTISRDNSKNTLYLQMNSLRAEDTAVYYCARGNPYYYGDLQVNFDYWGQGTLVTVSS VL: QAVVTQEPSLTVSPGGTVTLTCASSTGAVTSGYYPNWFQQKPGQAPRPLIYSTSNKHSWTPARFSGSLLGGKAALTLSGVQPDDEAEYYCLLYYGGDWVFGGGTKLTVL"
  quantity-unit: "%"
  percentage binding (FACS heat-map): 5.72
- binder: "A-027 (IgG1 format) (antibody, V domains shown, human IgG1 format) VH: QVQLVQSGAEVKKPGSSVKVSCKASGGTFSSYAISWVRQAPGQGLEWMGGIIPIFGTANYAQKFQGRVTITADKSTSTAYMELSSLRSEDTAVYYCARARGSTWGYFDYWGQGTLVTVSS VL: EIVLTQSPASLSLSPGERVTLSCRASQSVSNYLAWYQQKPGQAPRLLIYDASNRATGIPARFSGSGSGTDFTLTISSLEPEDFAVYYCQQRDNWPLTFGGGTKVEIK"
  quantity-unit: "%"
  percentage binding (FACS heat-map): 2.63

Values from patent US20240010720A1
